Read-out: Low-density lipoprotein receptor (LDLR), LDLR (gene 3949)
Assay: BSK_CASM3C_LDLR: BioMAP Diversity Plus: CASM3C Assay for Low-density lipoprotein receptor (LDLR) Biomarker Activity (AID 2283045);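 further: LDLR protein level on the cell surface quantified by ELISA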
Conditions: primary human coronary artery smooth muscle cells; actives raise or lower the signal
The source made the active and inactive calls. How the source made its calls: active means hit-call score of the fitted dose curve at least 0.9, where 1 is the maximum; inactive means score below 0.9.
Classes used: active, inactive

• O=C1C=CC(=O)c2ccccc21 = active
• O=C(Cc1ccccc1)OCCc1ccccc1 = inactive
• O=[N+]([O-])c1cccc2ccccc12 = inactive
• C#CCOC(=O)/C=C(C)/C=C/CC(C)CCCC(C)C (centres undefined) = inactive
• CCCCCCCCCCCCc1cccc(S(=O)(=O)O)c1 = inactive
• Cc1cc(C(C)(C)c2ccc(O)c(C)c2)ccc1O = inactive
• CC(C)O.CC(C)O.OCCN(CCO)CCO.OCCN(CCO)CCO.[Ti] = inactive
• O=C(O)C1(c2ccc3c(c2)OC[C@H](Cc2ccc(-c4ccccc4)cc2)[C@H]3O)CCCC1 = inactive
• CCN(CC)C(=O)C(Cl)=C(C)OP(=O)(OC)OC = inactive
• Oc1ccc(Cc2ccc(O)cc2)cc1 = inactive
• Cc1ccc(OP(=O)(Oc2ccc(C)cc2C)Oc2ccc(C)cc2C)c(C)c1 = inactive
• N#Cc1cccnc1 = inactive
• CC(C)(C)c1ccccc1O = inactive
• CC(C)(C)c1cc([N+](=O)[O-])cc(C(C)(C)C)c1O = inactive

###

Experiment: ATG_TCF_b_cat_CIS: Attagene CIS-FACTORIAL HepG2 Assay for human T-Cell-Factor with beta-catenin (TCF/b-cat) (AID 2282965)
Settings: HepG2 TCF/beta-catenin cis-reporter transcription, actives raise or lower the signal
Calls of active or inactive are those of the source. Rule for the calls: active = hit-call score of the fitted dose curve at least 0.9, where 1 is the maximum; inactive = score below 0.9.
readoutName: outcome

• O=c1[nH]c2ccccc2n1C1CCN(CCCC(c2ccc(F)cc2)c2ccc(F)cc2)CC1 = inactive
• O=C(O)C1(c2ccc3c(c2)OC[C@H](Cc2ccc(-c4ccccc4)cc2)[C@H]3O)CCCC1 = inactive
• O=[N+]([O-])c1ccccc1O = inactive

###

Experiment: ATG_E_Box_CIS: Attagene CIS-FACTORIAL HepG2 Assay for human Enhancer Box (E-box) (AID 2282936)
Conditions: HepG2 E-box cis-reporter transcription, actives raise or lower the signal
Activity calls are given as the source filed them. Rule for the calls: active = hit-call score of the fitted dose curve at least 0.9, where 1 is the maximum; inactive = score below 0.9.
readoutName: outcome

* O=NN1CCCCCCC1 | inactive
* N#Cc1ccccc1Cl | inactive
* N#Cc1ccncc1 | inactive

###

Read-out: Thrombomodulin, THBD (gene 7056)
Assay: BSK_CASM3C_Thrombomodulin: BioMAP Diversity Plus: CASM3C Assay for Thrombomodulin Biomarker Activity (AID 2283051);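 further: thrombomodulin protein level measured by ELISA 24 h after dosing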
Details: primary human coronary artery smooth muscle cells; actives raise or lower the signal
The source made the active and inactive calls. Rule for the calls: active = hit-call score of the fitted dose curve at least 0.9, where 1 is the maximum; inactive = score below 0.9.
Classes used: active, inactive

* CCOP(=S)(OCC)OP(=S)(OCC)OCC | inactive
* CC(C)N(C(=O)CCl)c1ccccc1 | active
* C#CCOC(=O)/C=C(C)/C=C/CC(C)CCCC(C)C (stereo not drawn) | inactive

###

Read-out: Intercellular Adhesion Molecule 1 (ICAM1), ICAM1 (gene 3383)
Test: BSK_3C_ICAM1: BioMAP Diversity Plus: 3C Assay for Intercellular Adhesion Molecule 1 (ICAM1) Biomarker Activity (AID 2283003)
Conditions: primary human endothelial cells (HUVEC); actives raise or lower the signal
Calls of active or inactive are those of the source. Rule for the calls: active = hit-call score of the fitted dose curve at least 0.9, where 1 is the maximum; inactive = score below 0.9.
Classes used: True = active, False = inactive

• Cc1ccc2nc3sc(=O)sc3nc2c1 = True
• O=C(O)C1(c2ccc3c(c2)OC[C@H](Cc2ccc(-c4ccccc4)cc2)[C@H]3O)CCCC1 = False
• CCOP(=O)(OCC)SCCSCC = False
• CC(C)O.CC(C)O.OCCN(CCO)CCO.OCCN(CCO)CCO.[Ti] = False
• CCC(C)(C#N)N=NC(C)(C#N)CC (stereo unspecified) = False
• CCN(CC)C(=O)C(Cl)=C(C)OP(=O)(OC)OC = False

###

Assay: ATG_NFI_CIS: Attagene CIS-FACTORIAL HepG2 Assay for human Nuclear Factor I (NFI) (AID 2282989)
Conditions: HepG2 cis-regulatory reporter, NFI response element transcription; actives raise or lower the signal
Calls of active or inactive are those of the source. Rule for the calls: active = hit-call score of the fitted dose curve at least 0.9, where 1 is the maximum; inactive = score below 0.9.
Classes used: active, inactive

* Oc1cc(Cl)c(Cl)cc1Cl | active
* Cc1cc(Cl)ccc1N | inactive
* CCCCCCCCBr | inactive
* C=CC(F)(C(F)(F)F)C(F)(F)C(F)(F)F (stereo not given) | inactive
* CC(C)(C#N)N=NC(C)(C)C#N | inactive
* O=c1[nH]c2ccccc2n1C1CCN(CCCC(c2ccc(F)cc2)c2ccc(F)cc2)CC1 | inactive
* CCC[CH2][Sn]([CH2]CCC)([CH2]CCC)[CH2]CCC | active
* CCN(CC)C(=O)C(Cl)=C(C)OP(=O)(OC)OC | inactive
* CN(C1CCCCC1)C1CCCCC1 | inactive
* Cc1ccc(CCl)cc1 | inactive
* CC(C)=CC1C(C(=O)OCc2cccc(Oc3ccccc3)c2)C1(C)C (stereo not given) | inactive
* Cc1cc(C(C)(C)c2ccc(O)c(C)c2)ccc1O | inactive
* CCOP(=S)(OCC)OP(=S)(OCC)OCC | inactive
* Clc1cc(C(Cl)(Cl)Cl)cnc1Cl | active
* O=[N+]([O-])c1ccc(Cl)c([N+](=O)[O-])c1 | inactive
* CCCCN(CCCC)C(=S)S | inactive
* CS(=O)(=O)c1ccc(C(=O)C2C(=O)CCCC2=O)c(Cl)c1COCC(F)(F)F | inactive
* NC(=O)CCl | inactive
* N#CCCC(Br)(C#N)CBr (stereo not given) | active
* O=C1c2ccccc2C(=O)C1C(=O)C(c1ccccc1)c1ccc(Cl)cc1 (stereo not given) | inactive
* O=NN1CCCCCC1 | inactive
* C1CN2CCN1CC2 | inactive
* Cc1ccccc1OP(=O)(Oc1ccccc1)Oc1ccccc1 | inactive
* O=C(NC(=O)c1c(F)cccc1F)Nc1cc(Cl)c(Oc2ncc(C(F)(F)F)cc2Cl)c(Cl)c1 | inactive
* ClCCN1CCOCC1 | inactive
* CCOC(=O)CC(=O)CCl | inactive
* Oc1ccc(Cc2ccc(O)cc2)cc1 | inactive
* CC(C)[C@@H](Nc1ccc(C(F)(F)F)cc1Cl)C(=O)OC(C#N)c1cccc(Oc2ccccc2)c1 (stereo not given in full) | inactive
* O=S(=O)(c1ccc(Cl)cc1)c1cc(Cl)c(Cl)cc1Cl | inactive
* C=C(C)C(=O)OCC(CC)CCCC (stereo not given) | inactive
* C#CCO | inactive
* CC(=Cc1ccccc1)[N+](=O)[O-] | inactive
* BrCCCCBr | inactive
* N#Cc1ccccc1N | inactive
* Nc1ncn[nH]1 | inactive

###

Assay: ATG_RORE_CIS: Attagene CIS-FACTORIAL HepG2 Assay for human RAR-related Orphan Receptor Element (RORE) (AID 2282959)
Conditions: HepG2 Attagene cis-factorial RORE reporter, mRNA; actives raise or lower the signal
Method: ATG_CIS is a cell-based, multiplexed-readout assay that uses HepG2, a human liver cell line, with measurements taken at 24 hours after chemical dosing in a 24-well plate.ATG_RORE_CIS is one of 52 assay component(s) measured or calculated from the ATG_CIS assay. […] This assay endpoint, ATG_RORE_CIS, was analyzed with bidirectional fitting relative to DMSO as the negative control and baseline of activity. […]
Activity calls are given as the source filed them. The calls were made as follows: active = hit-call score of the fitted dose curve at least 0.9, where 1 is the maximum; inactive = score below 0.9.
Classes used: Y for active, N for inactive

• Nc1ccc(Br)cc1 = N
• C[C@@H]1O[C@@H](O[C@H]2C[C@@H](O)[C@]3(CO)[C@H]4[C@H](O)C[C@]5(C)[C@@H](C6=CC(=O)OC6)CC[C@]5(O)[C@@H]4CC[C@]3(O)C2)[C@H](O)[C@H](O)[C@H]1O = N
• CC(C)(C)c1cc([N+](=O)[O-])cc(C(C)(C)C)c1O = Y
• Clc1cccc(Cl)c1Cl = N
• O=C(CCl)NCO = N
• O=C1C=CC(=O)c2ccccc21 = N
• CCOc1cc(C=O)ccc1O = N
• C=CC(F)(C(F)(F)F)C(F)(F)C(F)(F)F (stereo not drawn) = N
• Oc1cccc(-c2ccccc2)c1 = N
• Cc1cc(Cl)ccc1O = N
• C=CCN=C=S = N
• CC(C)(c1ccc(O)c(-c2ccccc2)c1)c1ccc(O)c(-c2ccccc2)c1 = N
• CC(C)[C@@H](Nc1ccc(C(F)(F)F)cc1Cl)C(=O)OC(C#N)c1cccc(Oc2ccccc2)c1 (stereo partly drawn) = N
• N#CCCC(Br)(C#N)CBr (stereo not drawn) = N
• C=CCCl = N
• CCCCC(CC)C(=O)Cl (stereo not drawn) = N
• O=S(=O)(F)C(F)(F)C(F)(F)C(F)(F)C(F)(F)F = N
• OCCCCO = N
• CCOC(=O)c1ccccc1S(=O)(=O)NC(=O)Nc1nc(Cl)cc(OC)n1 = N
• CCCCCCCCCCBr = N
• COC(=O)c1cc(Oc2ccc(Cl)cc2Cl)ccc1[N+](=O)[O-] = Y
• ClCc1ccccc1Cl = N
• CCC[N+](CCC)(CCC)CCC = N
• COC(=O)Nc1cccc(OC(=O)Nc2cccc(C)c2)c1 = N
• CC(C)(C#N)N=NC(C)(C)C#N = N
• O=[N+]([O-])c1cc([As](=O)(O)O)ccc1O = N
• N#Cc1ccc(Cl)cc1 = N
• Cc1cc(C(F)(C(F)(F)F)C(F)(F)F)ccc1NC(=O)c1cccc(I)c1C(=O)NC(C)(C)CS(C)(=O)=O = N
• O=[N+]([O-])c1ccccc1O = N
• CCCCOC(C)=O = N
• CN(C)CCN(C)C = N
• O=C/C(Cl)=C(/Cl)C(=O)O = N
• C1CN2CCN1CC2 = N
